system: PDE5A (Homo sapiens)
method: Enzymatic assay of PDE5A (3H-cGMP substrate)
Format: biochemical
studyConditions: 0.25 h, PDE5, compound at 0.1 μM; read-out: Inhibition Ratio (%) 0.1 μM
measuredMetric: inhibition at 0.1 µM (%)

Here are 4 compounds together with their reported answers.
| compound | unitAbbrev | inhibition at 0.1 µM |
| --- | --- | --- |
| OC1CCCN(c2nc(N3CCC(F)CC3)c3nc(N4CCCC(O)C4)nc(N4CCC(F)CC4)c3n2)C1 (centres unmarked) [6a] | % | 7 |
| OCCN(CCO)c1nc(N2CCC(F)CC2)c2nc(N(CCO)CCO)nc(N3CCC(F)CC3)c2n1 [4c] | % | 31 |
| OCCN(CCO)c1nc(N2CC[C@H](F)C2)c2nc(N(CCO)CCO)nc(N3CC[C@H](F)C3)c2n1 [(S)-4h] | % | 34 |
| OCCN(CCO)c1nc(N2CCC(F)(F)C2)c2nc(N(CCO)CCO)nc(N3CCC(F)(F)C3)c2n1 [4i] | % | 24 |

(I) OCCN(CCO)c1nc(N2CC[C@@H](F)C2)c2nc(N(CCO)CCO)nc(N3CC[C@@H](F)C3)c2n1 [(R)-4h]
(II) OCCN(CCO)c1nc(N2CCOCC2)c2nc(N(CCO)CCO)nc(N3CCOCC3)c2n1 [4a]
(III) OCC1CCCN(c2nc(N3CCSC3)c3nc(N4CCCC(CO)C4)nc(N4CCSC4)c3n2)C1 (centres unmarked) [5b]
Reorder the items by inhibition at 0.1 µM, least to greatest. Submit the labels in the order that the ranking request calls for. II, I, III
(II: 0%, I: 27%, III: 52%)

(I) OCCN(CCO)c1nc(N2CC[C@H](F)C2)c2nc(N(CCO)CCO)nc(N3CCSC3)c2n1 [9b]
(II) OCCN(CCO)c1nc(N2CCCC2)c2nc(N(CCO)CCO)nc(N3CCCC3)c2n1 [4e]
Lab note: check whether I or II shows the higher recorded inhibition at 0.1 µM. Your answer should be the label attached to the chosen record. I
(I: 33%, II: 7%)

----------
method: Rat liver microsomal stability
Assay type: in vitro ADME
studyConditions: rat liver microsomes, compound 0.5 μM; read-out: T1/2 in RLM
measuredMetric: half-life at 0.5 μM (min)

| compound | unitAbbrev | half-life at 0.5 μM |
| --- | --- | --- |
| OCCN(CCO)c1nc(N2CC[C@H](F)C2)c2nc(N(CCO)CCO)nc(N3CCSC3)c2n1 | min | 10 |

(P) OCCN(CCO)c1nc(N2CCSC2)c2nc(N(CCO)CCO)nc(N3CCSC3)c2n1
(Q) OCCN(CCO)c1nc(N2CCC(F)(F)CC2)c2nc(N(CCO)CCO)nc(N3CCC(F)(F)CC3)c2n1
When the recorded half-life at 0.5 μM values are compared, which is smaller: that of P or that of Q ? Your answer should be the label attached to the chosen record. P
(P: 5 min, Q: 19 min)

(P) OCCN(CCO)c1nc(N2CCSC2)c2nc(N(CCO)CCO)nc(N3CCSCC3)c2n1
(Q) OCCN(CCO)c1nc(N2CC[C@H](F)C2)c2nc(N(CCO)CCO)nc(N3CC[C@H](F)C3)c2n1 [(S)-4h]
Lab note: check whether P or Q shows the higher recorded half-life at 0.5 μM. Your answer should be the label attached to the chosen record. Q
(Q: 67 min, P: 4 min)

(A) OCCN(CCO)c1nc(N2CCSCC2)c2nc(N(CCO)CCO)nc(N3CCSCC3)c2n1
(B) OCCN(CCO)c1nc(N2CCC(F)CC2)c2nc(N(CCO)CCO)nc(N3CCC(F)CC3)c2n1
Lab note: check whether A or B shows the higher recorded half-life at 0.5 μM. Your answer should be the label attached to the chosen record. B

----------
system: PDE5A (Homo sapiens, UniProt O76074)
method: Enzymatic assay of PDE5A (3H-cGMP substrate)
Assay type: biochemical
studyConditions: 0.25 h, PDE5, compound at 0.5 μM; read-out: Inhibition Ratio (%) 0.5 μM
measuredMetric: inhibition at 0.5 µM (%)

| compound | system | measuredMetric | unitAbbrev | obsValue |
| --- | --- | --- | --- | --- |
| OCC1CCCN(c2nc(N3CCC(F)CC3)c3nc(N4CCCC(CO)C4)nc(N4CCC(F)CC4)c3n2)C1 (centres unmarked) | PDE5A (Homo sapiens, UniProt O76074) | inhibition at 0.5 µM | % | 7 |
| OCCN(CCO)c1nc(N2CCSCC2)c2nc(N(CCO)CCO)nc(N3CCSCC3)c2n1 | PDE5A (Homo sapiens, UniProt O76074) | inhibition at 0.5 µM | % | 75 |
| O[C@H]1CCN(c2nc(N3CCSC3)c3nc(N4CC[C@H](O)C4)nc(N4CCSC4)c3n2)C1 [(S)-5c] | PDE5A (Homo sapiens, UniProt O76074) | inhibition at 0.5 µM | % | 49 |

(I) OCCN(CCO)c1nc(N2CC[C@H](F)C2)c2nc(N(CCO)CCO)nc(N3CC[C@H](F)C3)c2n1 [(S)-4h]
(II) OC1CCN(c2nc(N3CCC(F)CC3)c3nc(N4CCC(O)C4)nc(N4CCC(F)CC4)c3n2)C1 (centres unmarked)
When the recorded inhibition at 0.5 µM values are compared, which is smaller: that of I or that of II ? Your answer should be the label attached to the chosen record. II

----------
system: PDE5A (Homo sapiens, UniProt O76074)
method: Enzymatic assay of PDE5A (3H-cGMP substrate)
Format: biochemical
studyConditions: 0.25 h, PDE5, compound at 0.5 μM; read-out: Inhibition Ratio (%) 0.5 μM
measuredMetric: inhibition at 0.5 µM (%)

Here are 8 molecules together with their reported answers.
| molecule | inhibition at 0.5 µM / % |
| --- | --- |
| OCCN(CCO)c1nc(N2CCSC2)c2nc(N(CCO)CCO)nc(N3CCSC3)c2n1 | 93 |
| OCCN(CCO)c1nc(N2CCOCC2)c2nc(N(CCO)CCO)nc(N3CCOCC3)c2n1 | 40 |
| CC1CCCN1c1nc(N(CCO)CCO)nc2c(N3CCCC3C)nc(N(CCO)CCO)nc12 (centres unmarked) | 60 |
| OC[C@H]1CCCN(c2nc(N3CCSC3)c3nc(N4CCC[C@H](CO)C4)nc(N4CCSC4)c3n2)C1 [(S)-5b] | 34 |
| OCC1CCCN(c2nc(N3CCSC3)c3nc(N4CCCC(CO)C4)nc(N4CCSC4)c3n2)C1 (centres unmarked) | 79 |
| OCCN(CCO)c1nc(N2CC[C@H](F)C2)c2nc(N(CCO)CCO)nc(N3CCSC3)c2n1 | 81 |
| OC1CCCN(c2nc(N3CCC(F)CC3)c3nc(N4CCCC(O)C4)nc(N4CCC(F)CC4)c3n2)C1 (centres unmarked) | 48 |
| OCCN(CCO)c1nc(N2CCC(F)(F)C2)c2nc(N(CCO)CCO)nc(N3CCC(F)(F)C3)c2n1 | 61 |

(I) OCCN(CCO)c1nc(N2CCSC2)c2nc(N(CCO)CCO)nc(N3CCSCC3)c2n1
(II) OCCN(CCO)c1nc(N2CC[C@@H](F)C2)c2nc(N(CCO)CCO)nc(N3CC[C@@H](F)C3)c2n1 [(R)-4h]
Lab note: check whether I or II shows the higher recorded inhibition at 0.5 µM. Your answer should be the label attached to the chosen record. I
(I: 91%, II: 44%)

----------
system: PDE5A (Homo sapiens)
method: Enzymatic assay of PDE5A (3H-cGMP substrate)
Format: biochemical
studyConditions: 0.25 h, PDE5, compound at 0.1 μM; read-out: Inhibition Ratio (%) 0.1 μM
measuredMetric: inhibition at 0.1 µM (%)

| compound | system | measuredMetric | obsValue |
| --- | --- | --- | --- |
| OCCN(CCO)c1nc(N2CCSC2)c2nc(N(CCO)CCO)nc(N3CCSC3)c2n1 | PDE5A (Homo sapiens) | inhibition at 0.1 µM | 60 |

(A) OCCN(CCO)c1nc(N2CCSC2)c2nc(N(CCO)CCO)nc(N3CCSCC3)c2n1
(B) CC1CCCN1c1nc(N(CCO)CCO)nc2c(N3CCCC3C)nc(N(CCO)CCO)nc12 (centres unmarked)
(C) OC1CCN(c2nc(N3CCSC3)c3nc(N4CCC(O)CC4)nc(N4CCSC4)c3n2)CC1
(D) OC1CCN(c2nc(N3CCC(F)CC3)c3nc(N4CCC(O)C4)nc(N4CCC(F)CC4)c3n2)C1 (centres unmarked)
Reorder the items by inhibition at 0.1 µM, least to greatest. Submit the labels in the order that the ranking request calls for. D, B, C, A
(D: 5%, B: 14%, C: 29%, A: 45%)
